Assay: HIV-1 AD8 envelope cell-cell fusion blockers – cherry-pick, dose response (AID 652062);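 further: luciferase signal from cell-cell fusion driven by HIV-1 clade B AD8 Env; potency is for inhibitors of fusion seen as a drop in luminescence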
Assay type: functional, cell-based
Calls of active or inactive are those of the source. How the calls were made is not given here.

compound | AC50
C[C@H]1CN([C@@H](C)CO)C(=O)c2c(c3ccccc3n2C)-c2ccccc2CO[C@H]1CN(C)C(=O)Cc1ccccc1 | < 0.26 µM (active)
CO[C@H]1CN(C)C(=O)c2ccc(NC(=O)C3CC3)cc2OC[C@H](C)N(Cc2cc(F)ccc2F)C[C@@H]1C | 1.5 µM (active)
C[C@H]1CN([C@@H](C)CO)C(=O)c2cc(NC(=O)Nc3ccc4c(c3)OCO4)ccc2O[C@H]1CN(C)S(=O)(=O)c1cccs1 | 29.3 µM (active)
CC(=O)Nc1ccc(S(=O)(=O)Nc2ccc(N3CCCCC3)cc2)cc1 | 17.8 µM (active)

The reported measurements were obtained from ChEMBL document CHEMBL1201862.
